Data provenance: PubChem BioAssay (NCATS)

Assay procedure: Quantitative High-Throughput drug screen in 47 multiple myeloma cell lines against the NCATS MIPE library collection: L363_DSMZ cell viability assay (AID 1918984); further: nearly all actives have a fitted effect of over 40% in size; further: potency means the concentration at half of the fitted maximal effect
Experimental context: L363 myeloma viability, CellTiter-Glo ATP luminescence, 48 h; series mostly up to 45.8 µM
Inconclusive results are not listed. Activity calls are given as the source filed them. The call rests on the fitted dose curve; in most records, active means well fitted cell-killing curve with a large enough effect; inconclusive means small, poorly fitted or top-dose-only effect, or effect the other way; inactive means no such curve, though single readings can be large or run the other way.
Readout label: Potency

The examples below pair each entry with its known result.
compound=NS(=O)(=O)c1cc2c(cc1Cl)NCNS2(=O)=O recorded_result=inactive
compound="COc1ccccc1OCC(O)CN1CCN(CC(=O)Nc2c(C)cccc2C)CC1 (stereo unspecified)" recorded_result=inactive
compound="CN1C2CCC1CC(OC(=O)C(CO)c1ccccc1)C2 (stereo unspecified)" recorded_result=inactive
compound=COc1cc2c(c(OC)c1OC)-c1ccc(OC)c(=O)cc1[C@@H](NC(C)=O)CC2 recorded_result=inactive
compound=COc1cc2nc(N3CCN(C(=O)c4ccco4)CC3)nc(N)c2cc1OC recorded_result="7.43 µM (active)"

Measured Potency of Cc1ccc(-c2cc(C(F)(F)F)nn2-c2ccc(S(N)(=O)=O)cc2)cc1 : inactive

Measured Potency of NC(=O)OCC(COC(N)=O)c1ccccc1 : inactive

Measured Potency of NC(=O)NO : 5.9 µM (active)

Measured Potency of OCCN1CCN(CCCN2c3ccccc3Sc3ccc(C(F)(F)F)cc32)CC1 : 7.43 µM (active)

###

System: JEG-3
Assay procedure: Primary qHTS to identify gynecologic anti-cancer compounds using libraries of approved drugs and bioactive compounds (AID 1345084); further: nearly all actives have a fitted effect of over 55% in size
Experimental context: Gynecologic cancer cell panel viability, ATPlite luminescence, 48 h; series mostly up to 57.5 µM
Records with an inconclusive call do not appear. Calls of active or inactive are those of the source. The call rests on the fitted dose curve; in most records, active means well fitted cell-killing curve with a large enough effect; inconclusive means small, poorly fitted or top-dose-only effect, or effect the other way; inactive means flat fitted curve, though single readings scatter.
Lab note: assign the record to one of active, inactive

Problem: Entry CC(C)NCC(O)c1ccc(O)c(O)c1 (centres undefined) : call = ?
Solution: inactive

Problem: Entry O=C(Nc1ccc([N+](=O)[O-])cc1Cl)c1cc(Cl)ccc1O : call = ?
Solution: active

Problem: Entry Cc1cc(C(C)(C)C)c(O)c(C)c1CC1=NCCN1 : call = ?
Solution: inactive

Problem: Entry CC(C(=O)O)c1cccc(C(=O)c2ccccc2)c1 (centres undefined) : call = ?
Solution: inactive

Problem: Entry NCCCCCC(=O)O : call = ?
Solution: inactive

Problem: Entry COC(=O)Nc1nc2ccc(C(=O)c3cccs3)cc2[nH]1 : call = ?
Solution: active

Problem: Entry O=C(CCCN1CCC(O)(c2ccc(Cl)cc2)CC1)c1ccc(F)cc1 : call = ?
Solution: inactive

Problem: Entry CCOC(=O)Nc1ccc(NCc2ccc(F)cc2)nc1N : call = ?
Solution: inactive

Problem: Entry NC(CO)C(=O)NNCc1ccc(O)c(O)c1O (centres undefined) : call = ?
Solution: inactive

Problem: Entry CN(C)c1nc(N(C)C)nc(N(C)C)n1 : call = ?
Solution: inactive

Problem: Entry Cc1ccccc1N1C(=O)c2cc(S(N)(=O)=O)c(Cl)cc2NC1C (centres undefined) : call = ?
Solution: inactive

Problem: Entry CN1CCC(=C2c3ccccc3C=Cc3ccccc32)CC1 : call = ?
Solution: inactive

Problem: Entry CC1COc2c(N3CCN(C)CC3)c(F)cc3c(=O)c(C(=O)O)cn1c23 (centres undefined) : call = ?
Solution: inactive

Problem: Entry Cn1c(=O)c2c(ncn2C)n(C)c1=O : call = ?
Solution: inactive

Problem: Entry COc1ccc2[nH]cc(CCNC(C)=O)c2c1 : call = ?
Solution: inactive

Problem: Entry CS(=O)(=O)CCNCc1ccc(-c2ccc3ncnc(Nc4ccc(OCc5cccc(F)c5)c(Cl)c4)c3c2)o1 : call = ?
Solution: inactive

Problem: Entry CN(Cc1cnc2nc(N)nc(N)c2n1)c1ccc(C(=O)N[C@@H](CCC(=O)O)C(=O)O)cc1 : call = ?
Solution: active

Problem: Entry COc1nc(C)nc(Cl)c1NC1=NCCN1 : call = ?
Solution: inactive

Problem: Entry Cc1ccc(C(=O)Nc2ccc(S(=O)(=O)O)c3cc(S(=O)(=O)O)cc(S(=O)(=O)O)c23)cc1NC(=O)c1cccc(NC(=O)Nc2cccc(C(=O)Nc3cc(C(=O)Nc4ccc(S(=O)(=O)O)c5cc(S(=O)(=O)O)cc(S(=O)(=O)O)c45)ccc3C)c2)c1 : call = ?
Solution: inactive

Problem: Entry CNCCCC12CCC(c3ccccc31)c1ccccc12 : call = ?
Solution: inactive

Problem: Entry NCCS(=O)(=O)O : call = ?
Solution: inactive

Problem: Entry N[C@@H](Cc1c[nH]c2ccc(O)cc12)C(=O)O : call = ?
Solution: inactive

Problem: Entry NCCc1cnc[nH]1 : call = ?
Solution: inactive

Problem: Entry Nc1ccn([C@H]2CC[C@@H](CO)O2)c(=O)n1 : call = ?
Solution: inactive

###

Target of assay: Thioredoxin reductase 1, cytoplasmic (Rattus norvegicus) (UniProt O89049)
Sequence (O89049 whole entry, looked up): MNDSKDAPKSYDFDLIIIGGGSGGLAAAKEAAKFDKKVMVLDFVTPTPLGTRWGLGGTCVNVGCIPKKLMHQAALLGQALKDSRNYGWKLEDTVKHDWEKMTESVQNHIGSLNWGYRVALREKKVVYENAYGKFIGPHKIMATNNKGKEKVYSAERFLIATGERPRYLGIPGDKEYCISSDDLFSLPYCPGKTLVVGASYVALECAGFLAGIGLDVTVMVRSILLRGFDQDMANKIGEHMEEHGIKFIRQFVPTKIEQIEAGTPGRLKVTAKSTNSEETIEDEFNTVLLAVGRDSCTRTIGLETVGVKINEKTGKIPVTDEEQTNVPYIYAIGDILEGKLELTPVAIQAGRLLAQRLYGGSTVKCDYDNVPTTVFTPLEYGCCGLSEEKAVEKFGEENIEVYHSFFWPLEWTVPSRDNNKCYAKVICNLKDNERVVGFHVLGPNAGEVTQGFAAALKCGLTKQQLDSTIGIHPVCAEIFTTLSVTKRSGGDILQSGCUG
Assay procedure: qHTS Assay for Inhibitors of Mammalian Selenoprotein Thioredoxin Reductase 1 (TrxR1) (AID 488773); further: nearly all actives have a fitted effect of over 40% in size
Experimental context: purified TrxR1 enzyme activity; inhibition; series mostly up to 57.1 µM
Records with an inconclusive call do not appear. The source made the active and inactive calls. The call rests on the fitted dose curve; in most records, active means well fitted inhibition curve with a large enough effect; inconclusive means small, poorly fitted or top-dose-only effect; inactive means no such curve, though single readings can be large or run the other way.
Lab note: assign the record to one of active, inactive

Problem: Entry COc1ccccc1N1CCN(CC(O)COc2cccc3ccccc23)CC1 (stereo unspecified) : call = ?
Solution: inactive

Problem: Entry Nc1nnc(-c2cccc(Cl)c2Cl)c(N)n1 : call = ?
Solution: inactive

Problem: Entry NC(CO)C(=O)NNCc1ccc(O)c(O)c1O (stereo unspecified) : call = ?
Solution: active

Problem: Entry O=c1[nH]cc(F)c(=O)[nH]1 : call = ?
Solution: inactive

Problem: Entry O=C1c2c(O)ccc(O)c2C(=O)c2c(NCCNCCO)ccc(NCCNCCO)c21 : call = ?
Solution: inactive

Problem: Entry Clc1ccc2c(c1)C(N1CCNCC1)=Nc1ccccc1O2 : call = ?
Solution: inactive

Problem: Entry CCc1cccc2c3c([nH]c12)C(CC)(CC(=O)O)OCC3 (stereo unspecified) : call = ?
Solution: inactive

Problem: Entry Cn1ccc2cc3c(cc21)CCN3C(=O)Nc1cccnc1 : call = ?
Solution: inactive

Problem: Entry CCOC(=O)C(C)(C)Oc1ccc(Cl)cc1 : call = ?
Solution: inactive

Problem: Entry Cc1cnc(C(=O)NCCc2ccc(S(=O)(=O)NC(=O)NC3CCCCC3)cc2)cn1 : call = ?
Solution: inactive

Problem: Entry CC12CC3CC(C)(C1)CC(N)(C3)C2 : call = ?
Solution: inactive

Problem: Entry Cc1cn([C@H]2C[C@H](N=[N+]=[N-])[C@@H](CO)O2)c(=O)[nH]c1=O : call = ?
Solution: inactive

Problem: Entry Clc1ccc2nsnc2c1NC1=NCCN1 : call = ?
Solution: inactive

Problem: Entry CCOC(=O)c1ncn2c1CN(C)C(=O)c1cc(F)ccc1-2 : call = ?
Solution: inactive

Problem: Entry NS(=O)(=O)c1cc2c(cc1Cl)NCNS2(=O)=O : call = ?
Solution: inactive

Problem: Entry Nc1nc2c(ncn2COC(CO)CO)c(=O)[nH]1 : call = ?
Solution: inactive

Problem: Entry CN1C(C(=O)Nc2ccccn2)=C(O)c2ccccc2S1(=O)=O : call = ?
Solution: inactive

Problem: Entry Cn1c(=O)c2[nH]cnc2n(C)c1=O : call = ?
Solution: inactive

Problem: Entry O=C1Cc2cc(CCN3CCN(c4nsc5ccccc45)CC3)c(Cl)cc2N1 : call = ?
Solution: inactive

Problem: Entry Clc1ccccc1C(c1ccccc1)(c1ccccc1)n1ccnc1 : call = ?
Solution: inactive

Problem: Entry Cn1c(=O)c2c(ncn2C)n(C)c1=O : call = ?
Solution: inactive

Problem: Entry NCCS(=O)(=O)O : call = ?
Solution: inactive

Problem: Entry CN1CCN(CCCN2c3ccccc3Sc3ccc(Cl)cc32)CC1 : call = ?
Solution: inactive

Problem: Entry CC(C)NCC(O)COc1ccc(CCOCC2CC2)cc1 (stereo unspecified) : call = ?
Solution: inactive

Problem: Entry COc1nc(C)nc(Cl)c1NC1=NCCN1 : call = ?
Solution: inactive

Problem: Entry COc1ccccc1OCCNCC(O)COc1cccc2[nH]c3ccccc3c12 (stereo unspecified) : call = ?
Solution: inactive

###

System: CP203
Assay procedure: qHTS profiling for inhibitors of Plasmodium falciparum proliferation (AID 504749); further: nearly all actives have a fitted effect of over 60% in size; further: potency means the concentration at half of the fitted maximal effect
Experimental context: P. falciparum in erythrocytes, SYBR Green DNA, 72 h; series mostly up to 28.7 µM
Description: NIH National Institute of Allergy and Infectious Diseases [NIAID] NIH Chemical Genomics Center [NCGC] […] Because mature erythrocytes lack DNA, only Plasmodium-derived DNA is detected. NCGC Assay Protocol Summary: The SYBR Green viability assay was adapted from a method described previously (Plouffe et al., 2008). […] The following morning, fluorescence intensity at 485(14) nm excitation and 535(25) nm emission wavelengths was measured on an EnVision (Perkin Elmer) plate reader. […]
Records with an inconclusive call do not appear. Activity calls are given as the source filed them. Calls come from the whole dose curve; as a rule, active = well fitted inhibition curve with a large enough effect; inconclusive = small, poorly fitted or top-dose-only effect; inactive = flat fitted curve, though single readings scatter.
Readout label: Potency

compound="COc1ccccc1N1CCN(CC(O)COc2cccc3ccccc23)CC1 (configuration not stated)" target_of_assay=CP203 recorded_result=inactive
compound=Clc1ccccc1C(c1ccccc1)(c1ccccc1)n1ccnc1 target_of_assay=CP203 recorded_result="0.721 µM (active)"
compound=Cc1cc(C(C)(C)C)c(O)c(C)c1CC1=NCCN1 target_of_assay=CP203 recorded_result=inactive
compound=Cc1cn([C@H]2C=C[C@@H](CO)O2)c(=O)[nH]c1=O target_of_assay=CP203 recorded_result=inactive
compound="CC(C)NCC(O)c1ccc(O)c(O)c1 (configuration not stated)" target_of_assay=CP203 recorded_result=inactive

Measured Potency of O=C1N(c2ccccc2)c2ccccc2C1(Cc1ccncc1)Cc1ccncc1 : inactive

Measured Potency of NCCc1cnc[nH]1 : inactive

Measured Potency of Cn1c(=O)c2c(ncn2C)n(C)c1=O : inactive

Measured Potency of Nc1nnc(-c2cccc(Cl)c2Cl)c(N)n1 : inactive
